From: patent US20140213531A1

# measurement target: T1, Trypsin, Iodination grade, from human pancreas (human, UniProt P07477 24-247)
# T1 construct: purified natural enzyme, bought
# assay: enzyme inhibition, pNA substrate
Bridges are numbered along the chain shown (N, C = ends). Primed or numbered codes have the meaning given here. [ ]: non-standard residue; d: D form. Pro(4NHCOPhe)″ = 4-benzamido-L-proline, (2S)-4-benzoylamino-pyrrolidine-2-carboxylic acid; Gly(octyl) = CCCCCCCC[C@H](N)C(=O)O; Nle = CCCC[C@H](N)C(=O)O
property label: % inhibition at 100 µM (%)

Example cases with answers are listed next.
XCTASIPPQCY (HELM PEPTIDE1{[Nle].C.T.A.S.I.P.P.Q.C.Y.[dP].V}$PEPTIDE1,PEPTIDE1,2:R3-10:R3|PEPTIDE1,PEPTIDE1,1:R1-13:R2$$$V2.0; SMILES CCCC[C@@H]1NC(=O)[C@H](C(C)C)NC(=O)[C@H]2CCCN2C(=O)[C@H](Cc2ccc(O)cc2)NC(=O)[C@@H]2CSSC[C@H](NC1=O)C(=O)N[C@@H]([C@@H](C)O)C(=O)N[C@@H](C)C(=O)N[C@@H](CO)C(=O)N[C@@H]([C@@H](C)CC)C(=O)N1CCC[C@H]1C(=O)N1CCC[C@H]1C(=O)N[C@@H](CCC(N)=O)C(=O)N2) [Example 125] :: 28.3
XCTASIPPQCY (HELM PEPTIDE1{[Nle].C.T.A.S.I.P.P.Q.C.Y.[dP].D}$PEPTIDE1,PEPTIDE1,2:R3-10:R3|PEPTIDE1,PEPTIDE1,1:R1-13:R2$$$V2.0; SMILES CCCC[C@@H]1NC(=O)[C@H](CC(=O)O)NC(=O)[C@H]2CCCN2C(=O)[C@H](Cc2ccc(O)cc2)NC(=O)[C@@H]2CSSC[C@H](NC1=O)C(=O)N[C@@H]([C@@H](C)O)C(=O)N[C@@H](C)C(=O)N[C@@H](CO)C(=O)N[C@@H]([C@@H](C)CC)C(=O)N1CCC[C@H]1C(=O)N1CCC[C@H]1C(=O)N[C@@H](CCC(N)=O)C(=O)N2, also called Ex. 168) [Example 168] :: 12.8
XCTASIPPQCQ (HELM PEPTIDE1{[Nle].C.T.A.S.I.P.P.Q.C.Q.[dP].P}$PEPTIDE1,PEPTIDE1,2:R3-10:R3|PEPTIDE1,PEPTIDE1,1:R1-13:R2$$$V2.0; SMILES CCCC[C@@H]1NC(=O)[C@@H]2CCCN2C(=O)[C@H]2CCCN2C(=O)[C@H](CCC(N)=O)NC(=O)[C@@H]2CSSC[C@H](NC1=O)C(=O)N[C@@H]([C@@H](C)O)C(=O)N[C@@H](C)C(=O)N[C@@H](CO)C(=O)N[C@@H]([C@@H](C)CC)C(=O)N1CCC[C@H]1C(=O)N1CCC[C@H]1C(=O)N[C@@H](CCC(N)=O)C(=O)N2, also called Ex. 91) [Example 91] :: 0
XCTASIPPQCX (HELM PEPTIDE1{[Nle].C.T.A.S.I.P.P.Q.C.[Phg].[dP].P}$PEPTIDE1,PEPTIDE1,2:R3-10:R3|PEPTIDE1,PEPTIDE1,1:R1-13:R2$$$V2.0; SMILES CCCC[C@@H]1NC(=O)[C@@H]2CCCN2C(=O)[C@H]2CCCN2C(=O)[C@H](c2ccccc2)NC(=O)[C@@H]2CSSC[C@H](NC1=O)C(=O)N[C@@H]([C@@H](C)O)C(=O)N[C@@H](C)C(=O)N[C@@H](CO)C(=O)N[C@@H]([C@@H](C)CC)C(=O)N1CCC[C@H]1C(=O)N1CCC[C@H]1C(=O)N[C@@H](CCC(N)=O)C(=O)N2, also called Ex. 136) [Example 136] :: 0

a = cyclo([Gly(octyl)]ETASIPPQKY[dP]P) (also called Ex. 156) [Example 156]
b = cyclo([Nle]CTASIP[Pro(4NHCOPhe)″]QCY[dP]P) (disulfide 2-10) [Example 138]
Prompt: I'm curious whether a or b has the smaller % inhibition at 100 µM number. Which is it? Which one? Tell me its label.
Response: a
